Listed here are sequences together with their documented cGMP response as percent of CNP.
- targetSystem: natriuretic peptide receptor on C3H10T1/2 cells (Mus musculus, UniProt Q6VVW5)
- Construct: endogenous in cells; host or cells: C3H10T1/2 cells
- Sequence (Q6VVW5 23-1047 limits assumed): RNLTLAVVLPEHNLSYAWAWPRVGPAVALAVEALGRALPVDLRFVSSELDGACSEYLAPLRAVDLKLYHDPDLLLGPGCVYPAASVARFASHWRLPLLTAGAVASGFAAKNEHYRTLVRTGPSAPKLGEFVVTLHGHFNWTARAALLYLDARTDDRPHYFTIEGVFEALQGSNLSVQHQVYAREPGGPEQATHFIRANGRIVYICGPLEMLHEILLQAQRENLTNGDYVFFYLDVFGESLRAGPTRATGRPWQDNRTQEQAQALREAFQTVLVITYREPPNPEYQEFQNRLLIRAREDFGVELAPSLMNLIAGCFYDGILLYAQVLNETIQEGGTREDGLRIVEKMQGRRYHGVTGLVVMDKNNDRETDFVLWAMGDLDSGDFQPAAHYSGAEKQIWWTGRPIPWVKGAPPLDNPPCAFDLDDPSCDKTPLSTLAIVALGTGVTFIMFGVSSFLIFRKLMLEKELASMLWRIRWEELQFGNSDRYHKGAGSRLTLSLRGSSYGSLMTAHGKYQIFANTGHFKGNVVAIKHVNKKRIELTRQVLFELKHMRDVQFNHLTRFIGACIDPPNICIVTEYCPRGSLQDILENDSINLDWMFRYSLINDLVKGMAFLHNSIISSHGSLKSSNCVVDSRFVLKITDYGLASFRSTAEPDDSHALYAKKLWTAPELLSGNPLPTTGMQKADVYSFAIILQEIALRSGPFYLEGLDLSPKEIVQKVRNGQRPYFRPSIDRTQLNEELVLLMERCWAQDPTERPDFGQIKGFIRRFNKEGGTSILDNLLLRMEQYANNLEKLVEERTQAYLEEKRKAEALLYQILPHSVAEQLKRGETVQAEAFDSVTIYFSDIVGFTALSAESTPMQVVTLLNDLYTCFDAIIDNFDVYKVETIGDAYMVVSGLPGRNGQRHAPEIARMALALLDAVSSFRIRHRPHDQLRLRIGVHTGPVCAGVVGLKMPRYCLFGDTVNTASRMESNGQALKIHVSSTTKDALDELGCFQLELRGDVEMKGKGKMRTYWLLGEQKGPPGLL
- methodDescription: Biotrak enzyme immunoassay of cGMP elicited on C3H10T1/2 cells
- Assay type: cell-based
- appliedConditions: Table 3; cGMP values at 10^-6 M, compared to CNP (CNP 1-22 and CNP 5-22 = 100%)
Please reply with the bare figure in % and do not write the unit itself.

// worked examples, cGMP response as percent of CNP included
Find the recorded cGMP response as percent of CNP belonging to C F G L K L D R L G S M S G L G C (CFGLKLDRLGSMSGLGC; peptide variant) [SEQ ID NO:51] and report it. 14.177

Find the recorded cGMP response as percent of CNP belonging to C W G L K L D R I G S M S G L G C (CWGLKLDRIGSMSGLGC; peptide variant) [SEQ ID NO:31] and report it. −10.834

Others:
Find the recorded cGMP response as percent of CNP belonging to C F G L K L D H I G S M S G L G C (CFGLKLDHIGSMSGLGC; peptide variant) [SEQ ID NO:48] and report it. 13.482

Find the recorded cGMP response as percent of CNP belonging to C F G I K L D R I G S M S G L G C (CFGIKLDRIGSMSGLGC; peptide variant) [SEQ ID NO:41] and report it. 47.395

Find the recorded cGMP response as percent of CNP belonging to C F G L K L D R I G S H S G L G C (CFGLKLDRIGSHSGLGC; peptide variant) [SEQ ID NO:66] and report it. 66.222

Find the recorded cGMP response as percent of CNP belonging to C F G L L L D R I G S M S G L G C (CFGLLLDRIGSMSGLGC; peptide variant) [SEQ ID NO:43] and report it. 29.744

Find the recorded cGMP response as percent of CNP belonging to C A G L K L A R I G S A S G L G C (CAGLKLARIGSASGLGC; peptide variant) [SEQ ID NO:27] and report it. −10.355
